assayNotes: NCI Yeast Anticancer Drug Screen. Data for the sgs1 mgt1 strain (AID 161);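 also: 0% = growth of cultures given vehicle only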
protocolConditions: S. cerevisiae sgs1 mgt1 strain, at 50.0 µM, hits give high values
Compounds without any hit were thinned out: in the full panel of roughly 79,000, 15% have a hit. Activity calls are given as the source filed them. Rule as the data show it: active = growth inhibition above about 70%; inactive = the rest.
recordedEndpoint: growth inhibition

Lookup result for O=C(Oc1ccc(-c2ccc([N+](=O)[O-])cc2)cc1)c1ccccc1 ; measured growth inhibition: 17% (inactive)

Lookup result for COC(=O)C1C2C=CC(C2)N1[C@@H](C)c1ccccc1 (stereo partly drawn) ; measured growth inhibition: -40.1% (inactive)

Lookup result for CCC(=O)Nc1cc(C)c(C)cc1C ; measured growth inhibition: -2.2% (inactive)

Lookup result for CC1CS(=O)(=O)O1 (stereo not drawn) ; measured growth inhibition: -18.6% (inactive)

Lookup result for Cc1ccc(S(=O)(=O)/C(C#N)=C\N2CC(=O)NC2=S)cc1 ; measured growth inhibition: -23.2% (inactive)

Lookup result for CCCOC1(C)Oc2cc3c(cc2C(c2cc(OC)c(OC)c(OC)c2)C1C)OCO3 (stereo not drawn) ; measured growth inhibition: -4.4% (inactive)

Lookup result for CCOC(=O)C1Oc2ccccc2OC1C (stereo not drawn) ; measured growth inhibition: 9.45% (inactive)

Lookup result for CCN(CC)C(=O)c1cccc2c1OCO2 ; measured growth inhibition: 2.35% (inactive)

Lookup result for C=CCNCc1cc(Cl)cc(Cl)c1O ; measured growth inhibition: -19.1% (inactive)

Lookup result for CCNC(=O)C(C(=O)OC)c1ccccc1 (stereo not drawn) ; measured growth inhibition: 5.3% (inactive)

Lookup result for CCOC(=O)NCCNC(=O)OCC ; measured growth inhibition: 1.45% (inactive)

Lookup result for O=C(O)/C=C(\Br)C(=O)O ; measured growth inhibition: -1% (inactive)

Lookup result for Cc1ccnc(C2=C(O)c3ccccc3C2=O)c1 ; measured growth inhibition: -9.75% (inactive)
